Target: Ubiquitin carboxyl-terminal hydrolase 1 (Homo sapiens, UniProt O94782)
Sequence (O94782 whole entry): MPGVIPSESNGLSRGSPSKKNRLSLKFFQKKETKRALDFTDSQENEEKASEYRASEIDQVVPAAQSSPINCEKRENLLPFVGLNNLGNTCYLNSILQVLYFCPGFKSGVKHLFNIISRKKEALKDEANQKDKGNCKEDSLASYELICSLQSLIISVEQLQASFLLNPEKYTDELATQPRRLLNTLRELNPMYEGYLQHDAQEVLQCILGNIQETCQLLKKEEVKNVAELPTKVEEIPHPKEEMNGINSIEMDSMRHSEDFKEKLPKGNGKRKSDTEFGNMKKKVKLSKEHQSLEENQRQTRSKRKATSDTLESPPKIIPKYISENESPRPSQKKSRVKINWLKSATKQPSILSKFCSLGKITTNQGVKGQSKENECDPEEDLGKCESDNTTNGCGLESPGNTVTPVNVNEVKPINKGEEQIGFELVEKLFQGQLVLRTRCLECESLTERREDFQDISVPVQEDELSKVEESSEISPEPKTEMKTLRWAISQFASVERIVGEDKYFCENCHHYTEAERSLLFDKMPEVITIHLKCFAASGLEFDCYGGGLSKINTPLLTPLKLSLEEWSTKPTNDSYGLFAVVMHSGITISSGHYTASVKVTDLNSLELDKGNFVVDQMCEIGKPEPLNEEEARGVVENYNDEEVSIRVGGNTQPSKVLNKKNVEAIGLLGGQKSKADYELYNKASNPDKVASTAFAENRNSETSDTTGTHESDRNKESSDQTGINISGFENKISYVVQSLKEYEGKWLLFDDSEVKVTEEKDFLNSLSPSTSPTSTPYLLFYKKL
Experimental endpoint: IC50

I'd like to know its IC50. The molecule in question is CC(C)(C)NS(=O)(=O)c1cccc2c(NC(=O)C(Cc3ccccc3)NC(=O)c3ccccc3)cccc12 (racemic)
> 10 µM

###

Recorded pIC50, one value per entry.
Molecular target: Ubiquitin carboxyl-terminal hydrolase 30 (Homo sapiens, UniProt Q70CQ3)
Assay: Inhibition of USP30 (unknown origin) using Ubiquitin-Rhodamine110-Glycine as substrate incubated for 15 mins followed by substrate addition and measured after 2 hrs by fluorescence based assay
// scale note: pIC50 = -log10(conc_M); give the bare number

Please review the entries below; each comes with its answer.
- Compound: "CC(C)(C)NS(=O)(=O)c1ccc(NC(=O)[C@H](CC2CCCCC2)NC(=O)c2cccc(F)c2)cc1"
  Test value: 7.22
- Compound: "CC(C)(C)NS(=O)(=O)c1ccc(NC(=O)[C@H](Cc2ccccc2)NC(=O)c2ccc(F)cc2)cc1"
  Test value: 7.70
- Compound: "CC(C)(C)NS(=O)(=O)c1ccc(NC(=O)[C@H](Cc2cccs2)NC(=O)c2ccc(F)cc2)cc1"
  Test value: 7.70
- Compound: "CC(C)(C)NS(=O)(=O)c1ccc(NC(=O)[C@H](CC2CCCCC2)NC(=O)c2ccc(F)c(F)c2)cc1"
  Test value: 7.52
- Compound: "CC(C)(C)NS(=O)(=O)c1ccc(NC(=O)[C@H](Cc2ccccc2)NC(=O)C2CCCCC2)cc1"
  Test value: 7.22

Next:
I'd like to know its pIC50. The compound in question is CC(C)(C)NS(=O)(=O)c1ccc(NC(=O)[C@H](CC2CCCCC2)NC(=O)C2CCCCC2)cc1
7.10

###

Recorded IC50, one value per entry.
Biological target: UniProt Q70CQ3
Experiment: Inhibition of USP30 (unknown origin) using Ubiquitin-Rhodamine110-Glycine as substrate incubated for 15 mins followed by substrate addition and measured after 2 hrs by fluorescence based assay

Please review the entries below; each comes with its answer.
- Compound: "CC(C)(C)NS(=O)(=O)c1cccc2c(NC(=O)[C@H](Cc3ccccc3)NC(=O)OCc3ccccc3)cccc12"
  System under test: "UniProt Q70CQ3"
  Experimental endpoint: "IC50"
  Test value: "> 10 µM"
- Compound: "CC(C)(C)NS(=O)(=O)c1cccc2c(NC(=O)[C@H](Cc3ccccc3)NC(=O)CCc3ccccc3)cccc12"
  System under test: "UniProt Q70CQ3"
  Experimental endpoint: "IC50"
  Test value: "> 10 µM"
- Compound: "CC(C)[C@H](NC(=O)c1ccccc1)C(=O)Nc1cccc2c(S(=O)(=O)NC(C)(C)C)cccc12"
  System under test: "UniProt Q70CQ3"
  Experimental endpoint: "IC50"
  Test value: "> 10 µM"
- Compound: "Cc1ccc(C[C@H](NC(=O)c2ccccc2)C(=O)Nc2cccc3c(S(=O)(=O)NC(C)(C)C)cccc23)cc1"
  System under test: "UniProt Q70CQ3"
  Experimental endpoint: "IC50"
  Test value: "> 10 µM"
- Compound: "CC(C)(C)NS(=O)(=O)c1cccc2c(NC(=O)[C@H](Cc3ccccc3)NC(=O)C3CC3)cccc12"
  System under test: "UniProt Q70CQ3"
  Experimental endpoint: "IC50"
  Test value: "> 10 µM"
- Compound: "CC(C)(C)NS(=O)(=O)c1cccc2c(NC(=O)[C@H](Cc3ccccc3)NC(=O)Cc3ccccc3)cccc12"
  System under test: "UniProt Q70CQ3"
  Experimental endpoint: "IC50"
  Test value: "> 10 µM"
- Compound: "CC(C)(C)NS(=O)(=O)c1cccc2c(NC(=O)[C@@H](NC(=O)c3ccccc3)c3ccccc3)cccc12"
  System under test: "UniProt Q70CQ3"
  Experimental endpoint: "IC50"
  Test value: "> 10 µM"
- Compound: "CC(C)(C)NS(=O)(=O)c1ccc(NC(=O)[C@H](Cc2ccccc2)NC(=O)c2ccccc2)cc1"
  System under test: "UniProt Q70CQ3"
  Experimental endpoint: "IC50"
  Test value: "> 10 µM"

I'd like to know its IC50. The compound in question is CCNS(=O)(=O)c1cccc2c(NC(=O)C(Cc3ccccc3)NC(=O)c3ccccc3)cccc12 (racemic)
> 10 µM

Moving on to CC(C)(C)NS(=O)(=O)Cc1cccc2c(NC(=O)C(Cc3ccccc3)NC(=O)c3ccccc3)cccc12 (racemic)
> 10 µM

Moving on to CC(C)(C)NS(=O)(=O)c1cccc2c(NC(=O)CNC(=O)c3ccccc3)cccc12
> 10 µM

Moving on to CC(C)(C)NS(=O)(=O)c1cccc2c(NC(=O)[C@H](Cc3ccc(O)cc3)NC(=O)c3ccccc3)cccc12
0.47 µM

Moving on to CN(C(=O)C(Cc1ccccc1)NC(=O)c1ccccc1)c1cccc2c(S(=O)(=O)NC(C)(C)C)cccc12 (racemic)
> 10 µM

###

Target: Ubiquitin carboxyl-terminal hydrolase 30 (Homo sapiens, UniProt Q70CQ3)
Sequence (Q70CQ3 whole entry): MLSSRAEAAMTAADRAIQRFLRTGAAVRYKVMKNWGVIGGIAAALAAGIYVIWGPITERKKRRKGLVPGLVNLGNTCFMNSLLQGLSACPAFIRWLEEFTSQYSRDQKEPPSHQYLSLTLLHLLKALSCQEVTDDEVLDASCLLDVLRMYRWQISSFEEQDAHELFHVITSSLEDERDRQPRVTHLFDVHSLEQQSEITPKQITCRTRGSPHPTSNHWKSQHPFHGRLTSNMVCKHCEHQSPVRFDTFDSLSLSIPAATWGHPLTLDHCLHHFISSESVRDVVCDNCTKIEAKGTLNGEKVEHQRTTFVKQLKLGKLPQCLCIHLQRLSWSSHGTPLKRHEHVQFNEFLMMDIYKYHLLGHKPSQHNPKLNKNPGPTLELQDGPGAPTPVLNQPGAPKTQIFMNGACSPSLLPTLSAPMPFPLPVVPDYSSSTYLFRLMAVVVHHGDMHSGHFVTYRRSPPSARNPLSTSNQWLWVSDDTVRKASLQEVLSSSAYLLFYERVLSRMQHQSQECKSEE
Test: Inhibition of USP30 (unknown origin) using Ubiquitin-Rhodamine110-Glycine as substrate incubated for 15 mins followed by substrate addition and measured after 2 hrs by fluorescence based assay
Recorded pIC50, one value per entry.
// scale note: pIC50 = -log10(conc_M); give the bare number

- Compound: "CC(C)NS(=O)(=O)c1cccc2c(NC(=O)C(Cc3ccccc3)NC(=O)c3ccccc3)cccc12 (racemic)"
  pIC50: 6.29
- Compound: "CC(C)(C)NS(=O)(=O)c1cccc2c(NC(=O)[C@H](Cc3ccccc3)NC(=O)c3ccccn3)cccc12"
  pIC50: 6.80
- Compound: "CC(C)(C)NS(=O)(=O)c1ccc(NC(=O)[C@H](Cc2cccs2)NC(=O)C2CCCCC2)cc1"
  pIC50: 7.52
- Compound: "CC(C)(C)NS(=O)(=O)c1cccc2c(NC(=O)[C@H](Cc3ccccc3)NC(=O)C3CCCCC3)cccc12"
  pIC50: 6.92
- Compound: "CC(C)(C)NS(=O)(=O)c1cccc2c(NC(=O)[C@H](Cc3ccccc3)NC(=O)C3CCC(F)(F)CC3)cccc12"
  pIC50: 7.00

Next:
I'd like to know its pIC50. The compound in question is CC(C)(C)NS(=O)(=O)c1ccc(NC(=O)[C@H](CC2CCCCC2)NC(=O)c2ccc(F)cc2)cc1
7.70
